I'd appreciate it if you could supply AC50 values for the items below.
Target: human PAH with the R408W mutation (A375 R408W cells) (Homo sapiens, UniProt P00439, R408W)
Construct: expressed in transfected cells
Sequence (P00439 1-452 R408W): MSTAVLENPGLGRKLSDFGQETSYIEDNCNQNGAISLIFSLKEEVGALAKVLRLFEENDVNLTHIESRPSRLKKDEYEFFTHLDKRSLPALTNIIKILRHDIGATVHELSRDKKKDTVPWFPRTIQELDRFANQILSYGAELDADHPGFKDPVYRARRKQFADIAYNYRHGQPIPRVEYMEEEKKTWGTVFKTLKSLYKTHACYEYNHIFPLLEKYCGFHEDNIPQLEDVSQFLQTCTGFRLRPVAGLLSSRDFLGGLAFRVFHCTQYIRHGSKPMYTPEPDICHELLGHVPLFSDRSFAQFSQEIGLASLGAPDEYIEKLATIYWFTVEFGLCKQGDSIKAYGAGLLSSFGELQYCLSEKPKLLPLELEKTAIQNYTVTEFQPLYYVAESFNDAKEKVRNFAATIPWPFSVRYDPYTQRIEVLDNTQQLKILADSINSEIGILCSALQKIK
Test: Cell Based Phenylalanine Flux Assay
Conditions: A375 cells expressing R408W PAH; 24 hrs with compound, then 20 μM sepiapterin and 800 μM 13C9,15N-Phenylalanine for 4 hours; 13C-Tyrosine by LC-MS; average where tested multiple times

Please review the entries below; each comes with its answer.
{"columns": ["molecule", "AC50"],
 "data": [
  ["CC(C)(O)c1nc(Br)c(C(=O)N2CCc3[nH]cnc3C2c2nc3cc(F)ccc3o2)s1 (stereo not drawn)", "1 to 5 µM"],
  ["CN(C)CCCc1ccc2c(C(=O)N3CCc4[nH]cnc4C3c3nc4cc(F)ccc4o3)cnn2c1 (stereo not drawn)", "≥ 5 µM"],
  ["CC(C)(O)c1cc(C(=O)N2CCc3[nH]cnc3C2c2nc3ccc(F)cc3o2)no1 (stereo not drawn)", "1 to 5 µM"],
  ["O=C(c1nnc(NC2CC2)o1)N1CCc2[nH]cnc2C1c1nc2cc(F)ccc2o1 (stereo not drawn)", "1 to 5 µM"],
  ["Cc1ccc2nc(C3c4nc[nH]c4CCN3C(=O)c3cnco3)oc2c1 (stereo not drawn)", "1 to 5 µM"],
  ["O=C(c1ccn[nH]1)N1CCc2[nH]cnc2C1c1nc2cc(F)ccc2o1 (stereo not drawn)", "≥ 5 µM"],
  ["CC(C)(O)c1nc(C(F)F)c(C(=O)N2CC(C)(C)c3[nH]cnc3C2c2nc3cc(F)ccc3o2)o1 (stereo not drawn)", "≥ 5 µM"],
  ["CC(C)(c1nc(C(F)F)c(C(=O)N2CCc3[nH]cnc3C2c2nc3cc(F)ccc3o2)o1)S(C)(=O)=O (stereo not drawn)", "1 to 5 µM"]
]}

For each of the items listed, what is its AC50?
1. O=C(c1nnc(-c2ccncn2)o1)N1CCc2[nH]cnc2C1c1nc2cc(F)ccc2o1 (stereo not drawn)
2. CC(C)(O)c1ncc(C(=O)N2CCc3[nH]cnc3C2c2nc3ccc(F)c(F)c3o2)o1 (stereo not drawn)
3. Cc1cccc2nc(C3c4nc[nH]c4CCN3C(=O)c3cnc(C(C)(C)O)o3)oc12 (stereo not drawn)
4. Cn1cncc1-c1nnc(C(=O)N2CCc3[nH]cnc3C2c2nc3c(F)ccc(F)c3o2)o1 (stereo not drawn)
5. O=C(c1cn[nH]c1)N1CCc2[nH]cnc2[C@H]1c1nc2cc(F)ccc2o1 (single isomer, unassigned)

Reply:
1: 1 to 5 µM; 2: 1 to 5 µM; 3: 1 to 5 µM; 4: ≥ 5 µM; 5: ≥ 5 µM

Would you be so kind as to report AC50 for each listed record?
1. O=C(c1ccn(-c2ccccn2)n1)N1CCc2[nH]cnc2C1c1nc2cccc(F)c2o1 (stereo not drawn)
2. O=C(C1CC1)N1CCc2[nH]cnc2[C@@H]1c1nc2cc(F)ccc2o1 (single isomer, unassigned)
3. O=C(c1cnco1)N1CCc2[nH]cnc2C1c1nc2c(F)cc(F)cc2o1 (stereo not drawn)
4. Cc1nnc(C(=O)N2CCc3[nH]cnc3C2c2nc3cc(F)ccc3o2)o1 (stereo not drawn)
5. O=C(c1cnco1)N1CCc2[nH]cnc2C1c1nc2ccc(F)cc2o1 (stereo not drawn)
6. O=C(c1nnc(-c2cnn(C(F)F)c2)o1)N1CCc2[nH]cnc2C1c1nc2cc(C(F)(F)F)ccc2o1 (stereo not drawn)
7. Cc1ccc2nc(C3c4nc[nH]c4CCN3C(=O)c3cnn4cc(CN(C)C)ccc34)oc2c1 (stereo not drawn)

Reply:
1. 1 to 5 µM
2. ≥ 5 µM
3. ≥ 5 µM
4. 1 to 5 µM
5. ≥ 5 µM
6. ≥ 5 µM
7. ≥ 5 µM

Give measured AC50 for every item shown.
1. Cn1cnnc1C(=O)N1CCc2[nH]cnc2C1c1nc2ccc(F)cc2o1 (stereo not drawn)
2. CC(C)(O)c1nnc(C(=O)N2CCc3[nH]cnc3C2c2nc3c(F)ccc(F)c3o2)o1 (stereo not drawn)

Reply:
1: 1 to 5 µM; 2: 1 to 5 µM

Your task in this section: give AC50 for each listed record.
1. Cc1nc(-c2ccccn2)sc1C(=O)N1CCc2[nH]cnc2C1c1nc2cc(F)ccc2o1 (stereo not drawn)
2. Cc1ccc2nc(C3c4nc[nH]c4CCN3C(=O)c3nnc(-c4ccc(F)cn4)o3)oc2c1 (stereo not drawn)

Reply:
["≥ 5 µM", "1 to 5 µM"]

###

Molecular target: human PAH with the R408W mutation (A375 R408W cells) (Homo sapiens, UniProt P00439, R408W)
Construct: expressed in transfected cells
Sequence (P00439 1-452 R408W): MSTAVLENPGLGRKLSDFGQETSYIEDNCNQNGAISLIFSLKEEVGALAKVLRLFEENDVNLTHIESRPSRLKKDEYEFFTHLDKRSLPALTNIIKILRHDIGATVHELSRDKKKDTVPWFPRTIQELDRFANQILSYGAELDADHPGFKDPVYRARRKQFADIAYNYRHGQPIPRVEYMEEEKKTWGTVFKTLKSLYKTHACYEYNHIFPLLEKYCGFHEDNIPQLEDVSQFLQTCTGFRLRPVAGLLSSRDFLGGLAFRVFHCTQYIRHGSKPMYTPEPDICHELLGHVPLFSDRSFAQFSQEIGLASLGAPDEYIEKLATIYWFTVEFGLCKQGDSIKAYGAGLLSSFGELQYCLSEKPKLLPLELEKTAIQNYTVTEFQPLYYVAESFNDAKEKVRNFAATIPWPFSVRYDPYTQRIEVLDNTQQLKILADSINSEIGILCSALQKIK
Assay: Cell Based Phenylalanine Flux Assay
Conditions: A375 R408W cells; 24 hrs with compound, then 20 μM sepiapterin and 800 μM 13C9,15N-Phenylalanine for 4 hours; 13C-Tyrosine by LC-MS; average where tested multiple times
experimental.readout: AC50

{"columns": ["compound.smiles", "AC50"],
 "data": [
  ["CN(C)c1cn2ncc(C(=O)N3CCc4[nH]cnc4[C@H]3c3nc4cc(F)ccc4o3)c2cc1Cl", "≤ 500 nM"],
  ["Cc1cccc2nc([C@@H]3c4nc[nH]c4CCN3C(=O)c3ocnc3C(F)F)oc12", "≤ 500 nM"],
  ["Cn1nc(Cl)nc1C(=O)N1CCc2[nH]cnc2[C@@H]1c1nc2cccc(F)c2o1", "1000 to 5000 nM"],
  ["COc1cccc2oc([C@@H]3c4nc[nH]c4CCN3C(=O)c3ocnc3C(F)F)nc12", "≤ 500 nM"],
  ["Cn1ccc(-c2nnc(C(=O)N3CCc4[nH]cnc4[C@H]3c3nc4cc(F)ccc4o3)o2)n1", "1000 to 5000 nM"]
]}

Please state AC50 for every compound in the list that follows.
1. Cc1ncoc1C(=O)N1CCc2[nH]cnc2[C@H]1c1nc2ccc(F)cc2o1
2. CC(C)(O)c1nc(C(F)F)c(C(=O)N2CCc3[nH]cnc3[C@H]2c2nc3c(F)c(F)ccc3o2)o1
3. Cn1cc(-c2nnc(C(=O)N3CCc4[nH]cnc4[C@H]3c3nc4cc(F)cc(F)c4o3)o2)cn1

Reply:
≤ 500 nM
500 to 1000 nM
≤ 500 nM

###

Assign AC50 to each entry below.
Target: human PAH with the R408W mutation (A375 R408W cells) (Homo sapiens, UniProt P00439, R408W)
Construct: expressed in transfected cells
Assay: Cell Based Phenylalanine Flux Assay
Conditions: A375 R408W cells; 24 hrs with compound, then 20 μM sepiapterin and 800 μM 13C9,15N-Phenylalanine for 4 hours; 13C-Tyrosine by LC-MS; average where tested multiple times

Could you tell me AC50 for each of these molecules? They are listed below.
1. Cn1cc(-c2nnc(C(=O)N3CCc4[nH]cnc4[C@H]3c3nc4cccc(F)c4o3)o2)cn1
2. O=C(c1ccnn1C(F)F)N1CCc2[nH]cnc2[C@H]1c1nc2ccc(F)cc2o1

Reply:
1: 500 to 1000 nM; 2: 500 to 1000 nM

###

Biological target: human PAH with the R408W mutation (A375 R408W cells) (Homo sapiens, UniProt P00439, R408W)
Construct: expressed in transfected cells
Sequence (P00439 1-452 R408W): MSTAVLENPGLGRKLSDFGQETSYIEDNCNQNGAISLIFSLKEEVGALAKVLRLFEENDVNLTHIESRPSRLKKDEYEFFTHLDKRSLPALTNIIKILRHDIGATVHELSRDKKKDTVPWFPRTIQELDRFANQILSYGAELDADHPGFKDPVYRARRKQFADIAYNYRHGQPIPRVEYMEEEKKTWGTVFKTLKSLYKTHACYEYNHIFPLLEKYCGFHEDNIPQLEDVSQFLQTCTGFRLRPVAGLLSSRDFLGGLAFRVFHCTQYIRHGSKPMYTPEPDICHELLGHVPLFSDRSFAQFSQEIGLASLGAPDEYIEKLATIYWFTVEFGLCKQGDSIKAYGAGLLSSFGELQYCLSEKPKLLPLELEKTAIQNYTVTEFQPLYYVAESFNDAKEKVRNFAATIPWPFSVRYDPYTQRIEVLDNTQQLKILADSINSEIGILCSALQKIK
Test: Cell Based Phenylalanine Flux Assay
Conditions: A375 cells expressing R408W PAH; 24 hrs with compound, then 20 μM sepiapterin and 800 μM 13C9,15N-Phenylalanine for 4 hours; 13C-Tyrosine by LC-MS; average where tested multiple times
experimental.readout: AC50

{"columns": ["molecule", "AC50"],
 "data": [
  ["Cc1nnc(C(=O)N2CCc3[nH]cnc3C2c2nc3c(F)ccc(F)c3o2)o1 (stereo not shown)", "1 to 5 µM"],
  ["Cn1cnc(-c2nnc(C(=O)N3CCc4[nH]cnc4C3c3nc4cc(F)ccc4o3)o2)c1 (stereo not shown)", "1 to 5 µM"],
  ["Nc1cc2c(C(=O)N3CCc4[nH]cnc4C3c3nc4cc(F)ccc4o3)cnn2cc1F (stereo not shown)", "≥ 5 µM"],
  ["Cc1nc(C(C)O)oc1C(=O)N1CCc2[nH]cnc2C1c1nc2c(F)cccc2o1 (stereo not shown)", "1 to 5 µM"],
  ["Cc1nc(C(C)(C)O)oc1C(=O)N1CCc2[nH]cnc2C1c1nc2cc(F)ccc2o1 (stereo not shown)", "1 to 5 µM"]
]}

Provide reported AC50 for each item, in the same order as listed.
1. CC(C)(O)c1ncc(C(=O)N2CCc3[nH]cnc3C2c2nc3c(F)c(F)ccc3o2)o1 (stereo not shown)
2. O=C(CCc1nccs1)N1CCc2[nH]cnc2C1c1nc2cc(F)ccc2o1 (stereo not shown)
3. O=C(c1cnco1)N1CCc2[nH]cnc2C1c1nc2cc(F)ccc2o1 (stereo not shown)
4. CC(C)(O)c1ncc(C(=O)N2CCc3[nH]cnc3C2c2nc3c(F)ccc(F)c3o2)o1 (stereo not shown)
5. COCc1nnc(C(=O)N2CCc3[nH]cnc3C2c2nc3cc(F)ccc3o2)o1 (stereo not shown)

Reply:
1. 1 to 5 µM
2. 1 to 5 µM
3. 1 to 5 µM
4. 1 to 5 µM
5. ≥ 5 µM

Source listed as patent US20250171437A1.
